- assay.overview: A CellTox Green Cytotoxicity Assay to monitor cytotoxicity in HEK293 cells - 40 hour (AID 1224871); further: nearly all actives have a fitted effect of over 45% in size
- condition.set: CellTox Green fluorescence; series mostly up to 76.8 µM
Records with an inconclusive call do not appear. Active and inactive are the calls of the source. The call rests on the fitted dose curve; in most records, active means well fitted activation curve with a large enough effect in the repeat runs; inconclusive means weak or mixed curves; inactive means flat fitted curve, though single readings scatter.
experimental.endpoint: cytotoxicity increase

Some entries whose results are on file:
{"columns": ["compound", "observed.measurement"],
 "data": [
  ["CC[C@H](N)c1ccccc1", "inactive"],
  ["CCC(CC)(CNC(=O)CCCO)c1cccc(OC)c1", "inactive"],
  ["O=C(Cl)CCl", "inactive"],
  ["OP(O)c1ccccc1", "inactive"],
  ["CCOC(=O)CC(SP(=S)(OC)OC)C(=O)OCC (centres undefined)", "inactive"]
]}

For the 4 compounds below, give their cytotoxicity increase values.
1. CC(C)C(C)(N)C#N (centres undefined)
2. CCC1(c2ccccc2)CCC(=O)NC1=O (centres undefined)
3. C[N+]1(C)CCCCC1
4. CS(=O)(=O)Cl

Response:
1. inactive
2. inactive
3. inactive
4. inactive

* * *

- tested.target: Androgen receptor (Homo sapiens) (UniProt P10275)
- Sequence (P10275 whole entry, looked up): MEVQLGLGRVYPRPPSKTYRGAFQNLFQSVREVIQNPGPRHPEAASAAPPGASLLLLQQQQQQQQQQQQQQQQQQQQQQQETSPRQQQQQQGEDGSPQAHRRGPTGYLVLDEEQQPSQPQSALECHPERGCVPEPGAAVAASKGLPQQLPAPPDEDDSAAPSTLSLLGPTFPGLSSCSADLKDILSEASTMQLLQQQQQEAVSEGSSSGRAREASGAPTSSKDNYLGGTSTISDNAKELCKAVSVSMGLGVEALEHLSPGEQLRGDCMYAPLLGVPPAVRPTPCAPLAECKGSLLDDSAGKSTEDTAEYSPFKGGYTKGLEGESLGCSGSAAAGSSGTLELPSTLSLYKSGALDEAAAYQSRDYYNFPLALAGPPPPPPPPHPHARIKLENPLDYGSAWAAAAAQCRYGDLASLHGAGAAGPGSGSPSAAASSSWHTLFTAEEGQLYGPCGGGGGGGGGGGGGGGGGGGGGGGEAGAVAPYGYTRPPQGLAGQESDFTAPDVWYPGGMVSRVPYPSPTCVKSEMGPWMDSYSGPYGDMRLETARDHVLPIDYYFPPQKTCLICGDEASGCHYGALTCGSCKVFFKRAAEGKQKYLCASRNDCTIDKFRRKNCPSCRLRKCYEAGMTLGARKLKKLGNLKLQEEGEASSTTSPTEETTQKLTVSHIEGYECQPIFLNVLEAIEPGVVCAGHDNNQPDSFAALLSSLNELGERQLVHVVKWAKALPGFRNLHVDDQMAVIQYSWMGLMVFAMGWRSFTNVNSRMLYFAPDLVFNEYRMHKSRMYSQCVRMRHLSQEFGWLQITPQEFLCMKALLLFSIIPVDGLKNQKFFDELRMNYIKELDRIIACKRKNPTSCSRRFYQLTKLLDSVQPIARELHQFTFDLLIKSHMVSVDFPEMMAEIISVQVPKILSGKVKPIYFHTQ
- assay.overview: qHTS assay to identify small molecule antagonists of the androgen receptor (AR) signaling pathway using the MDA cell line (AID 743042; further: nearly all actives have a fitted effect of over 55% in size)
- condition.set: MDA-kb2 AR-luc, MMTV luciferase, R1881 antagonist, 16 h; series mostly up to 70.3 µM
Inconclusive results are not listed. The source made the active and inactive calls. The call rests on the fitted dose curve; in most records, active means well fitted inhibition curve with a large enough effect in the repeat runs; inconclusive means weak or mixed curves, or effect the other way; inactive means no such curve, though single readings can be large or run the other way.
Assign a class; possible classes are 1 (yes) (active), 0 (no) (inactive)

Example results:
{"columns": ["molecule", "class.name"],
 "data": [
  ["[O-][Br+2]([O-])O", "0 (no)"],
  ["C[C@H]1CCCC(=O)CCC/C=C/c2cc(O)cc(O)c2C(=O)O1", "1 (yes)"],
  ["CCCOc1nn(C(=O)NS(=O)(=O)c2ccccc2C(=O)OC)c(=O)n1C", "0 (no)"],
  ["C[C@H](N)C(=O)c1ccccc1", "0 (no)"],
  ["COC(=O)c1ccc(CBr)cc1", "0 (no)"]
]}

Query: Each molecule tested received a call. Report the one for COc1cccc([C@@]2(O)CCCC[C@@H]2CN(C)C)c1 .
Response: 0 (no)

Query: Each molecule tested received a call. Report the one for CC(C)N(Cc1ccccc1)C(=O)C(C)(C)C .
Response: 0 (no)

Query: Each molecule tested received a call. Report the one for CCN(CC)C1CCCCC1 .
Response: 0 (no)

Query: Each molecule tested received a call. Report the one for OP(O)c1ccccc1 .
Response: 0 (no)

Query: Each molecule tested received a call. Report the one for CCOC(=O)NC(C)(C)Cc1ccc(Cl)cc1 .
Response: 0 (no)

Query: Each molecule tested received a call. Report the one for O=S1(=O)OCCO1 .
Response: 0 (no)

Query: Each molecule tested received a call. Report the one for N[C@@H]1C[C@H]1c1ccccc1 .
Response: 0 (no)

Query: Each molecule tested received a call. Report the one for C[N+]1(C)CCCCC1 .
Response: 0 (no)

Query: Each molecule tested received a call. Report the one for CNC(=O)O/N=C(/CSC)C(C)(C)C .
Response: 0 (no)

* * *

- assay.overview: qHTS assay to identify small molecule antagonists of the androgen receptor (AR) signaling pathway using the MDA cell line - cell viability counter screen (AID 743041; further: nearly all actives have a fitted effect of over 45% in size)
- condition.set: MDA-kb2 viability, CellTiter-Fluor, 16 h, cells co-treated with R1881 androgen agonist; series mostly up to 70.3 µM
Results filed as inconclusive are left out. Activity calls are given as the source filed them. Calls come from the whole dose curve; as a rule, active = well fitted cell-killing curve with a large enough effect in the repeat runs; inconclusive = weak or mixed curves, or effect the other way; inactive = flat fitted curve, though single readings scatter.
experimental.endpoint: outcome

Some entries whose results are on file:
{"columns": ["compound", "outcome"],
 "data": [
  ["CCCCCCC(=O)CCCCCC/C=C/C[C@@H](O)[C@H](O)[C@@](N)(CO)C(=O)O", "inactive"],
  ["C[C@H](N)C(=O)c1ccccc1", "inactive"],
  ["CC(C)[N+](C)(CCC(C(N)=O)(c1ccccc1)c1ccccc1)C(C)C", "inactive"],
  ["CS(=O)(=O)Cl", "inactive"],
  ["CC(C)(C)c1cc(O)ccc1O", "inactive"]
]}

For the 3 compounds below, give their outcome values.
1. CCCC(C)C1(CC)C(=O)N=C(S)NC1=O (stereo not given)
2. CCNc1nc(NCC)nc(SC)n1
3. CC(C)c1ccc(O)cc1

Response:
1: inactive; 2: inactive; 3: inactive

For the 8 compounds below, give their outcome values.
1. COP(=O)(O)OC
2. COC(=O)c1ccccc1CS(=O)(=O)NC(=O)Nc1nc(OC)cc(OC)n1
3. CCN(CC)C1CCCCC1
4. COC1=CC(=O)O[C@@H](/C=C/c2ccccc2)C1
5. CCCC(C)(COC(N)=O)COC(N)=O
6. C[C@H]1CCCC(=O)CCC/C=C/c2cc(O)cc(O)c2C(=O)O1
7. C=C(Cl)CSC(=S)N(CC)CC
8. C=CC(=O)OCCN(C)C

Response:
1. inactive
2. inactive
3. inactive
4. inactive
5. inactive
6. inactive
7. inactive
8. inactive

For the 8 compounds below, give their outcome values.
1. CCOP(=O)(CN(CCO)CCO)OCC
2. COC(=O)[C@@H](N)CCCN/C(N)=N/[N+](=O)[O-]
3. C=C1C[C@@H]2[C@H](CC[C@]3(C)C(=O)CC[C@@H]23)[C@@]2(C)C=CC(=O)C=C12
4. O=C1CC(=O)NC(=O)N1
5. BrCc1ccc(Br)cc1
6. CCOP(=S)(OCC)Oc1ccc(Cl)cc1Cl
7. ClC(Cl)(Cl)Cl
8. CCOC(=O)CCl

Response:
inactive
inactive
inactive
inactive
inactive
inactive
inactive
inactive
